Test system: COLO 205
Test: NCI tumour cell line growth inhibition, 48 h
Active and inactive are the calls of the source. Cut-off read from the data, not from the text of the source: active = GI50 up to about 1.1 µM and inactive = higher.
Would you mind answering with one of these outcomes? label 1 for active, label 0 for inactive

Cc1sc2nc(-c3ccc([N+](=O)[O-])cc3)c(/C=N/N=C(N)N)n2c1C; label 1
COc1ccc(/C=c2/sc3n(c2=O)NC2(CCCCC2)NN=3)cc1; label 0
CCCCCCCCCCCCCCCCOc1ccc(/C=C/C2=[N+](CCCl)CCO2)cc1; label 0

Test call, this compound: COC(=O)c1c(C)nc(C)c(N=O)c1-c1ccccc1C(F)(F)F
label 0

Test call, this compound: COC(=O)/C(C#N)=C/c1cc(C(C)(C)C)c(O)c(C(C)(C)C)c1
label 0

---

Below, each entry is listed alongside its reported GI50.
Test system: SNB-19
Assay: NCI tumour cell line growth inhibition, 48 h
The source made the active and inactive calls. Rule as the data show it: active = GI50 up to about 1.1 µM and inactive = higher.

Answered examples (8):
Cc1ccc(S(=O)(=O)NC2=NS(=O)(=O)c3cc(C)c(Cl)cc3S2)cc1; 75 µM (inactive)
CCOC(=O)NC(Nc1ccc(C(=O)OCC)cc1)(C(F)(F)F)C(F)(F)F; 96.8 µM (inactive)
Nc1ccc(S(=O)(=O)Nc2cnc3c(Cl)cccc3n2)cc1; 92.3 µM (inactive)
COc1ccc(CCC2c3cc(OC)c(OC)cc3CCN2C)cc1OC (stereo unspecified); > 100 µM (inactive)
C/C(=N\N=C(/[SeH])N1CC2CCC(CC2)C1)c1ccccn1; 0.2 µM (active)
O=C(c1ccco1)N(Cc1cccnc1)C(=S)N(Cc1cccnc1)C(=O)c1ccco1; 30.8 µM (inactive)
N#CC(C(=O)CCC(=O)C(C#N)c1ccccc1)c1ccccc1 (stereo unspecified); > 100 µM (inactive)
COC1=CC(=O)c2c(c(COP(=O)(N(C)CCBr)N(C)CCBr)cn2C)C1=O; 0.141 µM (active)

Return reported GI50. Input compound: O=C(CCO)OCCCCCC/C=C\CCCCCC/C=C\CCCCCCCCOC(=O)CCO
18.9 µM (inactive)

Return reported GI50. Input compound: Cc1ccc([N+](=O)[O-])cc1S(=O)(=O)Nc1ccc(C(=O)/C=C/c2cccs2)cc1
21.5 µM (inactive)

Return reported GI50. Input compound: Cc1cc(Cl)cc2c1NC(=O)C2(O)CC(=O)c1ccco1 (stereo unspecified)
> 100 µM (inactive)

---

System: NCI-H23
Experiment: NCI tumour cell line growth inhibition, 48 h
Activity calls are given as the source filed them. No stated cut-off is given here; in the data, active = GI50 up to about 1.1 µM and inactive = higher.
Below, each entry is listed alongside its reported GI50.

Answered examples (10):
O=C(O)CSc1nnc(COc2ccccc2)n1-c1ccccc1; > 100 µM (inactive)
N#CC(C(=O)CCC(=O)C(C#N)c1ccccc1)c1ccccc1 (stereo unspecified); > 100 µM (inactive)
CC1(C)OCC(C2OC(N3O[C@H](CI)C[C@@H]3c3ccccc3)C3OC(C)(C)OC23)O1 (stereo partly specified); > 100 µM (inactive)
CC(=O)Oc1c(N2CCCCC2)c(C(=O)c2ccccc2)c(O)c2ccn(N(C)C)c12; 18.9 µM (inactive)
O=C1C=C(NCCc2ccc(O)cc2)C(=O)C=C1NCCc1ccc(O)cc1; > 100 µM (inactive)
COc1ccc(/C=c2/sc3n(c2=O)NC2(CCCCC2)NN=3)cc1; > 100 µM (inactive)
COC(=O)C1=C(C)C(=O)[C@]23C(CCCC[C@H]12)C(=O)[C@H](C(=O)OC)C3C (stereo partly specified); > 100 µM (inactive)
c1ccc(-n2nc3ccc4nonc4c3n2)cc1; > 100 µM (inactive)
CC12CCC(C(Nc3ccccn3)C1=O)C2(C)C (stereo unspecified); > 100 µM (inactive)
CCOC(=O)c1c(-c2ccccc2)[nH]c2ccc(Cl)cc2c1=O; 41.1 µM (inactive)

// next entry
Return reported GI50. Input molecule: Cc1nn(C(=O)c2ccc(Cl)cc2)c2c1C(/C=C/c1ccccc1)SC(=N)N2 (stereo unspecified)
> 10 µM (inactive)

---

Test system: UO-31
Test: NCI tumour cell line growth inhibition, 48 h
Calls of active or inactive are those of the source. Cut-off read from the data, not from the text of the source: active = GI50 up to about 1.1 µM and inactive = higher.
Would you mind answering with one of these outcomes? active, inactive

# count of solved cases: 5
COc1ccc2[nH]c3c(C)cc([N+](=O)[O-])c(C)c3c2c1; inactive
CCOC(=O)CCC(NC(=O)c1ccc(/N=C/c2nc3cc(C(F)(F)F)ccc3nc2-c2ccccc2)cc1)C(=O)OCC (configuration not stated); inactive
C[C@]12CCC(O)CC1=CC[C@@H]1[C@@H]2CC[C@]2(C)C(=O)[C@H](n3ccnc3)C[C@@H]12 (some centres not stated); inactive
CC1=NN(C(=O)c2ccc(Cl)cc2)C(=O)/C1=C/c1ccccc1O; inactive
CC1OC(O[C@@H]2C=C3CC[C@@H]4[C@H](CC[C@]5(C)[C@@H](c6ccc(=O)oc6)CC[C@]45O)[C@@]3(C)CC2)C(O)C(OC2OC(CO)C(O)C(O)C2O)C1O (some centres not stated); active

Test call, this compound: CCN(CC)CCN1C(=O)c2cccc3cc(N)cc(c23)C1=O
inactive

Test call, this compound: CC12CCC[C@@](C)(C(=O)OC3OC(CO)C(O)C(O)C3O)[C@H]1CCC13CC4CC(OC4(CO)[C@H]1O)[C@@H]23 (some centres not stated)
inactive

---

System: UO-31
Experiment: NCI tumour cell line growth inhibition, 48 h
Active and inactive are the calls of the source. No stated cut-off is given here; in the data, active = GI50 up to about 1.1 µM and inactive = higher.
Would you mind answering with one of these outcomes? active, inactive

NCCNc1ncnc2ccc(Cl)cc12; inactive

Test call, this molecule: c1ccc(C[P+]2(c3ccccc3)c3ccccc3-c3ccccc32)cc1
inactive

Test call, this molecule: Cc1[nH]c2c(c1C)S(=O)(=O)c1cc3ccccc3nc1N2
inactive

Test call, this molecule: [N-]=[N+]=Nc1c(Br)c(=O)[nH]c(=O)n1COCCO
inactive

Test call, this molecule: NS(=O)(=O)c1c(O)c2ccccc2oc1=O
inactive

Test call, this molecule: C=CCC(NCc1ccccc1)[C@H](OCc1ccccc1)[C@@H]1COC(C)(C)O1 (stereo partly specified)
inactive

Test call, this molecule: C[C@@H]1C[C@@H](O)[C@@]2(O)C13CC(=O)OC(C3)[C@@H](C)[C@@]2(C)CO (stereo partly specified)
inactive

Test call, this molecule: COc1cc2c3c(c1OC)C1(C=CC(=O)C=C1)CC3N(C(=O)OC(C)(C)C(Cl)(Cl)Cl)CC2 (stereo unspecified)
inactive

Test call, this molecule: CC1C=C(CCCCCCCCCCCC[C@@H](O)[C@@H]2CC[C@@H]([C@@H]3CC[C@@H](C(O)CCCCCCCCCCCCC4=C[C@H](C)OC4=O)O3)O2)C(=O)O1 (stereo partly specified)
inactive

Test call, this molecule: Nc1nc(Cl)c(N)c(NCC2(CO)CCC2)n1
inactive

Test call, this molecule: CN1C=C(C(N)=O)C2CC(O)[C@@](NC(=O)CS(N)(=O)=O)(C(=O)O)C2C1 (stereo partly specified)
inactive

Test call, this molecule: COC(=O)C[C@H](CCSC)NC(=O)C[C@H](CCSC)NC(=O)C[C@H](CCSC)NC(=O)OC(C)(C)C
inactive

Test call, this molecule: COCc1nc2c(OC)c(-c3nc4ccc(N5CCN(C)CC5)nc4[nH]3)cc(OC)c2[nH]1
inactive

---

Tested on: BT-549
Assay: NCI tumour cell line growth inhibition, 48 h
Activity calls are given as the source filed them. Rule as the data show it: active = GI50 up to about 1.1 µM and inactive = higher.
measurement_name: GI50

Answered examples (5):
Cc1cc(=O)c2ccccc2n1CCCCCCCCCCn1c(C)cc(=O)c2ccccc21; 11 µM (inactive)
Cn1c(=O)n2c(=O)n(C)c(=O)n2c1=O; > 100 µM (inactive)
CCOC(=O)Nc1cc2c(c(N)n1)N=C(c1ccc(OC)cc1)CN2; < 0.01 µM (active)
O=[N+]([O-])c1ccc(CSc2c3ccccc3nc3ccccc23)cc1; 18.8 µM (inactive)
Cc1cc(S(=O)(=O)Nc2nc(N)nc(N3N=CCC3C)n2)c(SCC(=O)O)cc1Cl (stereo unspecified); > 10 µM (inactive)

// next entry
# lookup: BT-549 GI50, key = COCc1nc2c(OC)c(-c3nc4ccc(N5CCN(C)CC5)nc4[nH]3)cc(OC)c2[nH]1
> 100 µM (inactive)

---

System: Malme-3M
Assay: NCI tumour cell line growth inhibition, 48 h
The source made the active and inactive calls. Rule as the data show it: active = GI50 up to about 1.1 µM and inactive = higher.
measurement_name: GI50

Cc1nn(C(=O)c2ccccc2O)c2c1C(c1ccco1)SC(=N)N2 (centres undefined); > 10 µM (inactive)
O=C(CO[N+](=O)[O-])OC/C=C/c1ccccc1; > 100 µM (inactive)
CC1C2(C)OC(=N)C(C#N)(C(c3ccccc3)O2)C1(C#N)C#N (centres undefined); 28.3 µM (inactive)
CC(=O)OCC1OC(N2C(=O)[C@@H](Oc3ccccc3)[C@H]2/C=C/c2ccccc2)C(OC(C)=O)C(OC(C)=O)C1OC(C)=O (some centres undefined); > 100 µM (inactive)
O=C(NC1CCN(Cc2ccccc2)CC1)c1ccccc1I; 17.5 µM (inactive)
CC[C@@]1(O)C(=O)OCc2c1cc1n(c2=O)Cc2c-1nc1ccccc1c2/C=N/c1ccccc1N[C@@H]1c2cc3c(cc2[C@@H](c2cc(OC)c(O)c(OC)c2)[C@H]2C(=O)OC[C@@H]21)OCO3; 0.329 µM (active)
Nc1ncnc2c1ncn2CCCNO; > 100 µM (inactive)
COc1ccc2cc(Oc3ccc(Cl)cc3)c(=O)oc2c1; > 100 µM (inactive)

// next entry
Return reported GI50. Input compound: CCN(CC)CCN1C(=O)c2cccc3cc(N)cc(c23)C1=O
13 µM (inactive)
